- Procedure Text: in vivo
- Condition: mouse, iv, mice, i.v. in dimethylsulfoxide, after seven days, Litchfield and Wilcoxon
- Method: Intravenous Toxicity in Mice Male CD1 mice from Charles River (Italy), weighing 25 g were used. Compounds were administered intravenously (i.v.), dissolved in dimethylsulfoxide, and the volume of administration was 0.01 ml per 10 g of body weight. The LD50 after seven days, was calculated according to the method of Litchfield and Wilcoxon (Experimental Therapeutics 96, 99 (1949)).
Reported LD50 at 168 h values follow for various molecules
Report only the number, with the unit mg/kg understood.

// solved cases for LD50 at 168 h follow
Molecule	LD50 at 168 h, mg/kg
COC(=O)C1=C(C)NC(C)=C(C(=O)OCCN2CCN(c3ccc([N+](=O)[O-])c(C(F)(F)F)c3)CC2)C1c1cccc([N+](=O)[O-])c1 (stereo not drawn) [0296C]	55
COC(=O)C1=C(C)NC(C)=C(C(=O)OCCN2CCN(c3ccccc3Cl)CC2)C1c1cccc([N+](=O)[O-])c1 (stereo not drawn) [0248B]	24.7

Then there is this molecule:
input: Fill blank: measured LD50 at 168 h of the molecule COC(=O)C1=C(C)NC(C)=C(C(=O)OCCN2CCN(c3cccc(C(F)(F)F)c3)CC2)C1c1cccc([N+](=O)[O-])c1 (stereo not drawn) [0249B] is ____.
output: 35.3

* * *

Below is a list of entries, each paired with its recorded LD50 at 168 h value.
- Procedure Text: in vivo
- Condition: mouse, iv, mice, i.v. in dimethylsulfoxide, after seven days, Litchfield and Wilcoxon
Give just the numeric value; mg/kg need not be written.

input: Can you look up the measured LD50 at 168 h of COC(=O)C1=C(C)NC(C)=C(C(=O)OCCN2CCN(c3cccc(OC)c3)CC2)C1c1cccc([N+](=O)[O-])c1 (stereo not shown) [0298C] for me?
output: 38

input: Name the reported LD50 at 168 h value associated with the molecule CCOC(=O)C1=C(C)NC(C)=C(C(=O)OCCN2CCN(c3ccc(F)cc3)CC2)C1c1cccc([N+](=O)[O-])c1 (stereo not shown) [0284C]
output: 9.5

* * *

- Procedure Text: in vivo
- Condition: mouse, iv, mice, i.v. in dimethylsulfoxide, after seven days, Litchfield and Wilcoxon
Assay Metric: LD50 at 168 h (mg/kg)
Entry rule: numbers only, all in mg/kg.

Compound	Result
COCCOC(=O)C1=C(C)NC(C)=C(C(=O)OCCN2CCN(c3ccc(Cl)cc3)CC2)C1c1cccc([N+](=O)[O-])c1 (stereo not shown) [0293C]	16

input: Could you share which LD50 at 168 h value was measured for COC(=O)C1=C(C)NC(C)=C(C(=O)OCCN2CCN(c3ccccn3)CC2)C1c1cccc([N+](=O)[O-])c1 (stereo not shown) [0251B] ?
output: 12.6

input: Any idea what its LD50 at 168 h is? The compound is CCOC(=O)C1=C(C)NC(C)=C(C(=O)OCCN2CCN(c3ccccc3)CC2)C1c1cccc([N+](=O)[O-])c1 (stereo not shown) [0291C]
output: 25

input: May I ask what LD50 at 168 h has been recorded for COC(=O)C1=C(C)NC(C)=C(C(=O)OCCN2CCN(c3ccc([N+](=O)[O-])cc3)CC2)C1c1cccc([N+](=O)[O-])c1 (stereo not shown) [0295C] ?
output: 38

* * *

- Procedure Text: in vivo
- Condition: mouse, iv, mice, i.v. in dimethylsulfoxide, after seven days, Litchfield and Wilcoxon
Flag rule - LD50 at 168 h less than 30 mg/kg flags T; the remaining entries get F.

Example entries begin here.
Compound	Group Label
COC(=O)C1=C(C)NC(C)=C(C(=O)OCCN2CCN(c3ccc(F)cc3)CC2)C1c1cccc([N+](=O)[O-])c1 (stereo not shown) [0250B]	T
COC(=O)C1=C(C)NC(C)=C(C(=O)OCCN2CCN(c3ccc(Cl)cc3)CC2)C1c1cccc([N+](=O)[O-])c1 (stereo not shown) [0264B]	F
CC1=C(C(=O)OCCN2CCN(c3ccc(F)cc3)CC2)C(c2cccc([N+](=O)[O-])c2)C(C(=O)OCC(C)C)=C(C)N1 (stereo not shown) [0282C]	T
COC(=O)C1=C(C)NC(C)=C(C(=O)OCCN2CCN(c3ncccn3)CC2)C1c1cccc([N+](=O)[O-])c1 (stereo not shown) [0241A]	F
CCOC(=O)C1=C(C)NC(C)=C(C(=O)OCCN2CCN(c3ccc(Cl)cc3)CC2)C1c1cccc([N+](=O)[O-])c1 (stereo not shown) [0294C]	T
COC(=O)C1=C(C)NC(C)=C(C(=O)OCCN2CCN(c3cccc(Cl)c3)CC2)C1c1cccc([N+](=O)[O-])c1 (stereo not shown) [0255B]	T

input: For this compound, is LD50 at 168 h lower than 30 mg/kg? COCCOC(=O)C1=C(C)NC(C)=C(C(=O)OCCN2CCN(c3ccccc3)CC2)C1c1cccc([N+](=O)[O-])c1 (stereo not shown) [0290C]
output: T

* * *

- Procedure Text: in vivo
- Condition: mouse, iv, mice, i.v. in dimethylsulfoxide, after seven days, Litchfield and Wilcoxon
- Description: Intravenous Toxicity in Mice Male CD1 mice from Charles River (Italy), weighing 25 g were used. Compounds were administered intravenously (i.v.), dissolved in dimethylsulfoxide, and the volume of administration was 0.01 ml per 10 g of body weight. The LD50 after seven days, was calculated according to the method of Litchfield and Wilcoxon (Experimental Therapeutics 96, 99 (1949)).
Assay Metric: LD50 at 168 h (mg/kg)
Your answer should be a plain number; it is taken to be in mg/kg.

Compound	LD50 at 168 h, mg/kg
COC(=O)C1=C(C)NC(C)=C(C(=O)OCCN2CCN(c3nccs3)CC2)C1c1cccc([N+](=O)[O-])c1 (centres unmarked) [0240A]	7.1
CC1=C(C(=O)OCCN2CCN(c3ccc(Cl)cc3)CC2)C(c2cccc([N+](=O)[O-])c2)C(C(=O)OCC(C)C)=C(C)N1 (centres unmarked) [0292C]	35

input: Which LD50 at 168 h is reported for this compound? COC(=O)C1=C(C)NC(C)=C(C(=O)OCCN2CCN(c3ccc(Cl)c(Cl)c3)CC2)C1c1cccc([N+](=O)[O-])c1 (centres unmarked) [0285C]
output: 39

input: Looking for the measured LD50 at 168 h of CC1=C(C(=O)OCCN2CCN(c3ccccc3)CC2)C(c2cccc([N+](=O)[O-])c2)C(C(=O)OCC(C)C)=C(C)N1 (centres unmarked) [0289C] , can you help?
output: 12

input: Which LD50 at 168 h is reported for this compound? COC(=O)C1=C(C)NC(C)=C(C(=O)OCCN2CCN(c3ccccc3)CC2)C1c1cccc([N+](=O)[O-])c1 (centres unmarked) [0219A]
output: 8.6

* * *

- Procedure Text: in vivo
- Condition: mouse, iv, mice, i.v. in dimethylsulfoxide, after seven days, Litchfield and Wilcoxon
Doc: threshold 20 mg/kg (exclusive). Items with LD50 at 168 h beneath it return Satisfied; others return Not satisfied.

Take a look at these entries with their results.
Compound	Group Label
COC(=O)C1=C(C)NC(C)=C(C(=O)OCCN2CCN(c3ccccc3C)CC2)C1c1cccc([N+](=O)[O-])c1 (centres unmarked) [0243A]	Satisfied
COC(=O)C1=C(C)NC(C)=C(C(=O)OCCN2CCN(c3ccccc3OC)CC2)C1c1cccc([N+](=O)[O-])c1 (centres unmarked) [0242A]	Satisfied

input: I wonder whether COC(=O)C1=C(C)NC(C)=C(C(=O)OCCN2CCN(c3ccc(OC)cc3)CC2)C1c1cccc([N+](=O)[O-])c1 (centres unmarked) [0266B] has LD50 at 168 h below 20 mg/kg. Can you tell?
output: Not satisfied

input: Report whether reported LD50 at 168 h is lower than 20 mg/kg (strictly) for COC(=O)C1=C(C)NC(C)=C(C(=O)OCCN2CCN(c3ccc(C(F)(F)F)cc3)CC2)C1c1cccc([N+](=O)[O-])c1 (centres unmarked) [0297C]
output: Not satisfied

input: Report whether reported LD50 at 168 h is lower than 20 mg/kg (strictly) for COCCOC(=O)C1=C(C)NC(C)=C(C(=O)OCCN2CCN(c3ccc(F)cc3)CC2)C1c1cccc([N+](=O)[O-])c1 (centres unmarked) [0283C]
output: Satisfied
